// data source = the supplement of paper PMC10065799

Molecular target: Fyn (UniProt P06241)
Sequence (P06241 whole entry, looked up): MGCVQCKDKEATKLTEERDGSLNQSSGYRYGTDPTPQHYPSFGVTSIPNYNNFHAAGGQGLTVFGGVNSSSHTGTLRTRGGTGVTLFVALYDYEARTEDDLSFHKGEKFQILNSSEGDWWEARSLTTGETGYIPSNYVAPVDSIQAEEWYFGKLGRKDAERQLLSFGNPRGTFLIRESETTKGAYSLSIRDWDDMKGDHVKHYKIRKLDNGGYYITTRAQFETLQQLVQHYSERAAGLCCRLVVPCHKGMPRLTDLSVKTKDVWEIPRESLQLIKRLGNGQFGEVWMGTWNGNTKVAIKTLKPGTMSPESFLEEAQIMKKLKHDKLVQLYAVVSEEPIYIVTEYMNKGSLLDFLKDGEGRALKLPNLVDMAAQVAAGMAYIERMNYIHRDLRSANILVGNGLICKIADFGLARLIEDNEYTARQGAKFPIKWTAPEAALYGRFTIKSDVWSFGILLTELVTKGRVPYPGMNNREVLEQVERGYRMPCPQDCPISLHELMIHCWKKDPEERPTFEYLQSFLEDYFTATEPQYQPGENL
Test: phosphorylation enrichment, bacterial display (enrichment ratio); higher = better substrate or ligand; peptides without Tyr show the background;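 also: 11-residue human phosphosite peptides and single-mutation variants displayed on the E. coli surface, counted by deep sequencing, each peptide's frequency after selection divided by its frequency in the unselected input library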;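 also: frequency after pTyr selection over input frequency; kinase dosed for 20-30% of maximal phosphorylation in three min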
measure: phosphorylation enrichment

[[record]]
biosequence = "FTTIHYNFMCN [TP53_Y234_C229Y_YF]"
experimental_target = "Fyn (UniProt P06241)"
observed_measurement = 0.496

[[record]]
biosequence = "SLIEHYEPSET [PLCD1_Y258_R257H]"
experimental_target = "Fyn (UniProt P06241)"
observed_measurement = 0.513

[[record]]
biosequence = "KVKVEYDMTVP [AHNAK_Y964_G962V]"
experimental_target = "Fyn (UniProt P06241)"
observed_measurement = 0.492

[[record]]
biosequence = "VRALTYCDLHK [KCNH2_Y827]"
experimental_target = "Fyn (UniProt P06241)"
observed_measurement = 0.499

